For each of the compounds below, state its growth.
system: HS 578T breast; assay: NCI-60 one-dose screen, 48 h (100 = growth as untreated, 0 = no growth, -100 = all killed); conditions: 10 µM unless noted
Compounds without any hit were thinned out: in the full panel of roughly 83,000, 20% have a hit.
Field format: number, assumed %, no unit text.

Report its growth with HS 578T breast as the test system: O=C(Nc1ccc(Nc2ncccn2)cc1)NC1C=c2ccccc2=CC1 (stereo unspecified)
100

Report its growth with HS 578T breast as the test system: O=S(=O)(NCCCNc1nccc(-c2c(-c3cccc(O)c3)nc3occn23)n1)c1ccc(F)cc1
82.3

Report its growth with HS 578T breast as the test system: CCNC(=S)NNC(=O)c1cc2ccc1CCc1ccc(cc1)CC2
102

Report its growth with HS 578T breast as the test system: C(=N\Nc1ncc(-c2cc3cc4c(cc3o2)OCO4)s1)/c1c[nH]c2ccccc12
-6.98

Report its growth with HS 578T breast as the test system: CS(=O)(=O)Nc1cc(-c2ccc3ncnc(Nc4ccc5[nH]ncc5c4)c3c2)cnc1Cl
21.7

Report its growth with HS 578T breast as the test system: Cn1c(COC(=O)NCCc2ccccn2)nc2c(N3CCOCC3)nc(Cl)nc21
-25

Report its growth with HS 578T breast as the test system: O=C(CCN1CCCC1)Nc1ccc2c(NCc3ccc(F)cc3)c3ccccc3nc2c1
-9.73

Report its growth with HS 578T breast as the test system: O=S(=O)(O)c1cc(O)c2c(N=Nc3ccc(Nc4ccccc4)c4c(S(=O)(=O)O)cccc34)cc(S(=O)(=O)O)cc2c1
101

Report its growth with HS 578T breast as the test system: O=C(Nc1ccc2ncnc(Nc3ccc(Oc4cccc(F)c4)c(Cl)c3)c2c1)c1ccc(CNCCO)cc1
51.3

Report its growth with HS 578T breast as the test system: COc1cc2nc(-c3ccc(C(F)(F)F)cc3)cc(OCCCN3CCC(O)CC3)c2cc1OC
64.7

Report its growth with HS 578T breast as the test system: COc1ccc(-c2nc(SCCC(C)C)nc(N/N=C(/C)c3ccc(C)cc3)c2C#N)cc1
85.1

Report its growth with HS 578T breast as the test system: COc1nc(N)nc(-n2c(-c3ccc(C)cc3)nc3ccccc32)c1NCc1ccc(C)cc1
83.6

Report its growth with HS 578T breast as the test system: COc1ccc(Nc2nc(N)nc3c2CCc2occc2-3)cc1
105

Report its growth with HS 578T breast as the test system: O=C1Nc2c(ccc(Cl)c2Cl)/C1=C/c1ccc(O)cc1
89

Report its growth with HS 578T breast as the test system: O=C(Nc1cccc(Cl)c1)Oc1c(Br)c(Br)c(Br)c(Br)c1Br
84.3

Report its growth with HS 578T breast as the test system: O=C(/C=C/c1ccc[nH]1)c1ccc(-n2ccc(C(F)(F)F)n2)cc1
100

Report its growth with HS 578T breast as the test system: O=C(CNCCO)Nc1ccc2ncnc(Nc3ccc(OCc4cccc(F)c4)c(Cl)c3)c2c1
103

Report its growth with HS 578T breast as the test system: COc1ccc(/C=C/C(=O)c2ccc(OC)c(OC)c2)cc1O
92.6

Report its growth with HS 578T breast as the test system: c1cnc2nc3c(cc2c1)oc1ccccc13
102

Report its growth with HS 578T breast as the test system: COc1cc(COC(=O)CCCCC[P+](c2ccccc2)(c2ccccc2)c2ccccc2)c(OC)c2c1OCO2
70.8

Report its growth with HS 578T breast as the test system: Cc1ccccc1C(c1ccccc1)c1ccccc1C
106

----------
tested on: MDA-MB-231 breast; test: NCI-60 one-dose screen, 48 h (100 = growth as untreated, 0 = no growth, -100 = all killed); conditions: 10 µM unless noted
Compounds without any hit were thinned out: in the full panel of roughly 83,000, 20% have a hit.
Could you mark each record condition met if its growth falls strictly under 40%, and condition not met if it equals or exceeds it?

Take the compound c1ccc(C2CC(c3cccc(Nc4ccncc4)c3)=NN2c2ccccc2)cc1 (stereo not given) and say whether its growth is less than 40%.
condition not met

Take the compound COc1ccc2c(Nc3ccc(NS(C)(=O)=O)cc3)c3ccccc3nc2c1 and say whether its growth is less than 40%.
condition met

Take the compound CN1C(=O)N(C)C2NC(N/N=C/c3ccccc3)=NC21 (stereo not given) and say whether its growth is less than 40%.
condition not met

Take the compound CCCC/C(=N\N=C(N)N)c1ccc(F)cc1 and say whether its growth is less than 40%.
condition not met

Take the compound Cc1c2c(cc[n+]1Cc1ccccc1)c1ccc(OCc3ccccc3)cc1n2Cc1ccccc1 and say whether its growth is less than 40%.
condition met

Take the compound Cc1[nH]c(C(=O)Nc2ccccc2OCc2cccc(C(=O)NCCN)c2)c(Cl)c1Cl and say whether its growth is less than 40%.
condition not met

Take the compound O=C(O)/C=C\C(=O)N1C/C(=C\c2ccccc2Cl)C(=O)/C(=C/c2ccccc2Cl)C1 and say whether its growth is less than 40%.
condition met

Take the compound CCSc1ccc2c(c1)N(CCCN1CCN(C)CC1)c1ccccc1S2 and say whether its growth is less than 40%.
condition met

Take the compound Nc1nc(SN=Nc2ccc(S(N)(=O)=O)cc2)c2[nH]cnc2n1 and say whether its growth is less than 40%.
condition met

----------
system: NCI-H460 lung; assay: NCI-60 one-dose screen, 48 h (100 = growth as untreated, 0 = no growth, -100 = all killed); settings: 10 µM unless noted
The panel holds about 83,000 compounds, 20% with a hit somewhere; the sample as a whole holds those more often.
Observed Property: growth (%)
Field format: number, assumed %, no unit text.

Tell me growth reported for COc1ccccc1/C=C1\COc2ccc(-c3ccccc3)cc2C1=O
12.2

Tell me growth reported for COc1cc(NCCCN(CC(C)C)C2CCCC2)c2ncccc2c1
54.8

Tell me growth reported for COc1ccc(-c2nc(N/N=C/c3c[nH]c4ccccc34)nc(N3CCOCC3)c2C#N)cc1
82.8

Tell me growth reported for COc1cnccc1-c1nc2ccc3[nH]ncc3c2c2c1CCCC2
44.7

Tell me growth reported for CN(C)C(=O)OCc1nc2c(N3CCOCC3)nc(-c3ccccc3)nc2n1C
-71.8

Tell me growth reported for COc1ccc2c(c1)OC13Oc4cc(OC)ccc4C=C1CCCC3=C2
14.3

Tell me growth reported for c1cnc2nc3c(cc2c1)oc1ccccc13
95.2

Tell me growth reported for Cc1ccc(O)c(C(=O)O)c1
103

Tell me growth reported for Cc1ccc2nc3c(cc2c1)CSc1nnc(-c2ccc[nH]c2=S)n1N3
99.2

Tell me growth reported for CC(C)CN(C(=O)c1ccc(Cl)cc1)c1c(N)n(CC(C)C)c(=O)[nH]c1=O
88.4

Tell me growth reported for COc1cccc(CCC(=O)c2cc3c(N)c(C(=O)Nc4ccccc4)sc3nc2C)c1
11.7

Tell me growth reported for COc1cccc(CCC(=O)c2cc3c(N)c(C(=O)Nc4cccc(Cl)c4C)sc3nc2C)c1
7.76

Tell me growth reported for CN1C(=O)N(C)C2NC(N/N=C/c3ccccc3)=NC21 (stereo not drawn)
103

Tell me growth reported for Cn1ncc2c(Nc3ccccc3Cl)nc(Cl)nc21
114

Tell me growth reported for CC(=O)Nc1ccc(C(=O)Nc2cc(-c3ccccc3)ccc2N)cc1
59.7

Tell me growth reported for COc1ccc(C(=O)/C=C/c2cn(Cc3ccc(Cl)cc3)c3ccccc23)cc1
11.8

Tell me growth reported for COc1ccc(C(=O)/C=C/c2ccc(OCc3ccccc3)c(OC)c2)cc1OC
47

Tell me growth reported for Cc1cc(C)c(C=O)c(C)c1
106

Tell me growth reported for CN1CCN(Cc2ccc(NC(=O)c3cncc(C#Cc4cnccc4C(F)(F)F)c3)cc2C(F)(F)F)CC1
71.6

Tell me growth reported for O=C1C(=O)c2c(nc3ncccn23)-c2ccccc21
-49.3

Tell me growth reported for Cc1ccc(C2CC(c3cccc(Nc4ccncc4)c3)=NN2c2ccccc2)cc1 (stereo not drawn)
-77.8

Tell me growth reported for COc1cc2nc(-c3ccc(C(F)(F)F)cc3)cc(OCCN3CCCC3)c2cc1OC
68.1

Tell me growth reported for N#CC1=C(N)Oc2c(ccc3ccccc23)C1c1ccc([N+](=O)[O-])cc1 (stereo not drawn)
69.8

Tell me growth reported for COC(=O)CCCCCCCCC1(C)C=CC(C(C)O)=CC1 (stereo not drawn)
111

Tell me growth reported for COc1ccc(C(=O)c2cc3c(N)c(C(=O)Nc4cccc(Br)c4C)sc3nc2C)cc1
5.88

Tell me growth reported for CS(=O)(=O)c1ccc(-c2cc3c(oc2=O)-c2ccccc2OC3O)cc1 (stereo not drawn)
91.7

Tell me growth reported for COc1ccc(/C(=C\c2ccccc2)C(=O)O)cc1OC
101

Tell me growth reported for CC(C)(C)OC(=O)N1CCN(c2ccc(N)cc2)C(=O)C1
111

Tell me growth reported for COc1ccccc1/C=C1\Oc2cc(OCCCN3CCCC3)ccc2C1=O
95.9

Tell me growth reported for COc1c(Cl)cc(Cl)c2ccc(C=C3C(=O)NC(=S)NC3=O)nc12
103

Tell me growth reported for Cc1ccc(/C=C/C(=O)c2ccc(N)cc2)c(C)c1
97.2

Tell me growth reported for N#Cc1c(NC(=O)c2cccc(Br)c2)sc2c1CCCC2
75.3

Tell me growth reported for Cc1ccc2[nH]c(=S)n(-c3ccc(S(=O)(=O)Nc4ccc(Cl)nn4)cc3)c(=O)c2c1
104

Tell me growth reported for O=c1[nH]c(=O)[nH]c(=S)[nH]1
105

Tell me growth reported for COc1ccccc1N1CCN(C(=O)c2ccc3nc(NC(=O)c4ccc(NCCc5ccccc5)c([N+](=O)[O-])c4)sc3c2)CC1
86.5

Tell me growth reported for O=C(CNCCO)Nc1ccc2ncnc(Nc3ccc(OCc4cccc(F)c4)c(Cl)c3)c2c1
88.7

Tell me growth reported for NC(=O)c1ccc[n+](CC(=O)N2CCN(c3cc4c(cc3F)c(=O)c(C(=O)O)cn4C3CC3)CC2)c1
101

Tell me growth reported for Brc1ccc(C2CC(c3cccc(Nc4ccncc4)c3)=NN2c2ccccc2)cc1 (stereo not drawn)
0.717

Tell me growth reported for CC(=O)[C@@H]1CC[C@]2(C(N)=O)CC[C@]3(C)[C@H](CC[C@@H]4[C@@]5(C)CCC(=O)C(C)(C)[C@@H]5CC[C@]43C)[C@@H]12
101

Tell me growth reported for CCN(CC)CCCC(Nc1c2ccc(Cl)cc2nc2ccc(OC)cc12)c1ccc(Cl)cc1 (stereo not drawn)
-69.2

Tell me growth reported for COc1ccc(C(=O)c2cc3c(N)c(C(=O)Nc4ccc(Cl)cc4)sc3nc2C)cc1
68.4

Tell me growth reported for COc1ccc(OC)c(/C=C/[C@H]2O[C@@H](C)[C@H](O)[C@@H]2O)c1
106

Tell me growth reported for Cn1/c(=N/NC(N)=S)ccc2ccccc21
108
